Listing of entries alongside the reported MIC.
tested on: Acinetobacter baumannii NCTC 13304 (OXA-27); type: cell-based; details: NCTC 13304
Bridge positions count the residues as written; N and C are the ends. Square brackets hold non-standard residues; d marks the D form. Peptide text beside a SMILES is read from it. * marks the point of attachment. Dab(CH2SO3H) = N[C@@H](CCNCS(=O)(=O)O)C(=O)O; Heptanoyl(6-Me) = CC(C)CCCCC(=O)*; dOrn = NCCC[C@@H](N)C(=O)O; X1 = CC[C@H](C)CCCCC(=O)*; dDab = NCC[C@@H](N)C(=O)O; Heptanoyl = CCCCCCC(=O)*; Dab = NCC[C@H](N)C(=O)O

molecule	units_of_measure	op	MIC
CC(C)CCCCC(=O)N[C@@H](CCNCS(=O)(=O)O)C(=O)N[C@H](C(=O)N[C@H](CO)C(=O)N[C@H]1CCNC(=O)[C@H]([C@@H](C)O)NC(=O)[C@H](CCN)NC(=O)[C@H](CCN)NC(=O)[C@H]([C@@H](C)O)NC(=O)[C@@H](Cc2ccccc2)NC(=O)[C@H](CCN)NC1=O)[C@@H](C)O [Compound 108] ({Heptanoyl(6-Me)}-[Dab(CH2SO3H)]T[dS][Dab][Dab][dF]T[Dab][Dab]T; lactam 4-C)	µg/mL	=	0.06
CC(C)CCCCC(=O)N[C@@H](CCN)C(=O)N[C@H](C(=O)N[C@H](CO)C(=O)N[C@H]1CCNC(=O)[C@H]([C@@H](C)O)NC(=O)[C@H](CCN)NC(=O)[C@H](CCN)NC(=O)[C@H]([C@@H](C)O)NC(=O)[C@@H](Cc2ccccc2)NC(=O)[C@H](CCNCS(=O)(=O)O)NC1=O)[C@@H](C)O [Compound 109] ({Heptanoyl(6-Me)}-[Dab]T[dS][Dab][Dab(CH2SO3H)][dF]T[Dab][Dab]T; lactam 4-C)	µg/mL	=	0.06
CC[C@H](C)CCCCC(=O)N[C@@H](CCN)C(=O)N[C@H](C(=O)N[C@H](CCN)C(=O)N[C@H]1CCNC(=O)[C@H]([C@@H](C)O)NC(=O)[C@H](CCN)NC(=O)[C@H](CCN)NC(=O)[C@H]([C@@H](C)O)NC(=O)[C@@H](Cc2ccccc2)NC(=O)[C@H](CCN)NC1=O)[C@@H](C)O [Compound 11] (X1-[Dab]T[dDab][Dab][Dab][dF]T[Dab][Dab]T; lactam 4-C)	µg/mL	≤	0.03
CC(C)CCCCC(=O)N[C@@H](CCN)C(=O)N[C@H](C(=O)N[C@@H](CCN)C(=O)N[C@H]1CCNC(=O)[C@H]([C@@H](C)O)NC(=O)[C@H](CCN)NC(=O)[C@H](CCN)NC(=O)[C@H]([C@@H](C)O)NC(=O)[C@@H](Cc2ccccc2)NC(=O)[C@H](CCN)NC1=O)[C@@H](C)O [Compound 17] ({Heptanoyl(6-Me)}-[Dab]T[Dab][Dab][Dab][dF]T[Dab][Dab]T; lactam 4-C)	µg/mL	=	0.25
CCCCCCC(=O)N[C@@H](CCN)C(=O)N[C@H](C(=O)N[C@H](CCCN)C(=O)N[C@H]1CCNC(=O)[C@H]([C@@H](C)O)NC(=O)[C@H](CCN)NC(=O)[C@H](CCN)NC(=O)[C@H](CC(C)C)NC(=O)[C@@H](Cc2ccccc2)NC(=O)[C@H](CCN)NC1=O)[C@@H](C)O [Compound 44] (Heptanoyl-[Dab]T[dOrn][Dab][Dab][dF]L[Dab][Dab]T; lactam 4-C)	µg/mL	=	0.06
